These measurements were taken from patent US6784137B2.

Listed next: entries and their corresponding pest or weed control at 125 ppm.
- Tested on: Yellow nutsedge (Cyperus esculentus)
- EXPERIMENT NOTES: Postemergence herbicidal activity, greenhouse spray
- Format: in vivo
- SETUP CONDITIONS: Cyperus, post-emergence, 336 h, Table 1; rate 125 ppm; visual score after 2 weeks; read-out: Post-emergent % control CYPES

[
  {
    "COMPOUND": "Nc1cc(-c2ccc(C(F)(F)F)cc2Cl)nc(C(=O)O)c1Cl [Compound 184]",
    "pest or weed control at 125 ppm": "40%"
  },
  {
    "COMPOUND": "Nc1cc(-c2ccc(C(F)(F)F)cc2)nc(C(=O)O)c1Cl [Compound 152]",
    "pest or weed control at 125 ppm": "95%"
  },
  {
    "COMPOUND": "COC(=O)c1nc(-c2ccc(Cl)s2)cc(N)c1Cl [Compound 98]",
    "pest or weed control at 125 ppm": "70%"
  },
  {
    "COMPOUND": "Nc1cc(-c2ccc(Cl)nc2)nc(C(=O)O)c1Cl [Compound 225]",
    "pest or weed control at 125 ppm": "60%"
  },
  {
    "COMPOUND": "Nc1cc(-c2ccc(Cl)s2)nc(C(=O)O)c1Cl [Compound 215]",
    "pest or weed control at 125 ppm": "70%"
  },
  {
    "COMPOUND": "Nc1c(F)c(C(=O)O)nc(-c2ccc3c(c2)OCO3)c1F [Compound 207]",
    "pest or weed control at 125 ppm": "40%"
  },
  {
    "COMPOUND": "COC(=O)c1nc(-c2ccc3c(c2)OCO3)c(F)c(N)c1F [Compound 95]",
    "pest or weed control at 125 ppm": "60%"
  },
  {
    "COMPOUND": "COC(=O)c1nc(-c2ccc(Cl)cc2Cl)c(F)c(NC(C)=O)c1Cl [Compound 49]",
    "pest or weed control at 125 ppm": "30%"
  },
  {
    "COMPOUND": "Nc1cc(-c2cc3ccccc3s2)nc(C(=O)O)c1Cl [Compound 224]",
    "pest or weed control at 125 ppm": "30%"
  }
]

----------
- Tested on: Crabgrass(large) (Digitaria sanguinalis)
- EXPERIMENT NOTES: Preemergence herbicidal activity, soil spray
- Assay type: in vivo
- SETUP CONDITIONS: Digitaria sanguinalis, pre-emergence, 504 h; Table 5; rate 560 ppm; visual score after 3 weeks; read-out: Pre-emergent % control DIGSA
- From the text: Seeds of the desired test plant species were planted in a soil matrix prepared by mixing a loam soil (43 percent silt, 19 percent clay, and 38 percent sand, with a pH of about 8.1 and an organic matter content of about 1.5 percent) and sand in a 70 to 30 ratio. The soil matrix was contained in plastic pots with a surface area of 113 square centimeters. When required to ensure good germination and healthy plants, a fungicide treatment and/or other chemical or physical treatment was applied. […]

[
  {
    "SMI": "COc1ccc(-c2cc(N)c(Cl)c(C(=O)O)n2)cc1",
    "UNITS TEXT": "%",
    "pest or weed control at 560 ppm": 60
  },
  {
    "SMI": "Cc1ccc(-c2cc(N)c(Cl)c(C(=O)O)n2)cc1",
    "UNITS TEXT": "%",
    "pest or weed control at 560 ppm": 100
  },
  {
    "SMI": "COc1ccccc1-c1cc(N)c(Cl)c(C(=O)O)n1",
    "UNITS TEXT": "%",
    "pest or weed control at 560 ppm": 100
  },
  {
    "SMI": "Nc1c(F)c(-c2ccc3c(c2)OCO3)nc(C(=O)O)c1Cl",
    "UNITS TEXT": "%",
    "pest or weed control at 560 ppm": 100
  },
  {
    "SMI": "Nc1cc(-c2ccc3c(c2)OCO3)nc(C(=O)O)c1Cl",
    "UNITS TEXT": "%",
    "pest or weed control at 560 ppm": 100
  },
  {
    "SMI": "Nc1c(F)c(-c2ccc(Cl)cc2)nc(C(=O)O)c1Cl",
    "UNITS TEXT": "%",
    "pest or weed control at 560 ppm": 100
  },
  {
    "SMI": "COC(=O)c1nc(-c2cccc(C)c2)cc(N)c1Cl",
    "UNITS TEXT": "%",
    "pest or weed control at 560 ppm": 100
  },
  {
    "SMI": "COC(=O)c1nc(-c2ccc(C)cc2)cc(N)c1Cl",
    "UNITS TEXT": "%",
    "pest or weed control at 560 ppm": 100
  },
  {
    "SMI": "COC(=O)c1nc(-c2ccc(Cl)cc2F)c(F)c(N)c1F",
    "UNITS TEXT": "%",
    "pest or weed control at 560 ppm": 30
  },
  {
    "SMI": "Nc1c(F)c(-c2ccc3c(c2)CCO3)nc(C(=O)O)c1Cl",
    "UNITS TEXT": "%",
    "pest or weed control at 560 ppm": 100
  },
  {
    "SMI": "Nc1cc(-c2ccc(Cl)c(C(F)(F)F)c2)nc(C(=O)O)c1Cl",
    "UNITS TEXT": "%",
    "pest or weed control at 560 ppm": 98
  },
  {
    "SMI": "COC(=O)c1nc(-c2ccc(Cl)cc2Cl)c(F)c(N)c1Cl",
    "UNITS TEXT": "%",
    "pest or weed control at 560 ppm": 70
  },
  {
    "SMI": "COC(=O)c1nc(-c2ccc(C(F)(F)F)cc2)cc(N)c1Cl",
    "UNITS TEXT": "%",
    "pest or weed control at 560 ppm": 100
  },
  {
    "SMI": "Nc1cc(-c2ccc(Cl)cc2Cl)nc(C(=O)O)c1Cl",
    "UNITS TEXT": "%",
    "pest or weed control at 560 ppm": 80
  },
  {
    "SMI": "Nc1c(Cl)c(C(=O)O)nc(-c2ccc(Cl)cc2)c1Cl",
    "UNITS TEXT": "%",
    "pest or weed control at 560 ppm": 80
  },
  {
    "SMI": "Nc1cc(-c2cccc(Cl)c2)nc(C(=O)O)c1Cl",
    "UNITS TEXT": "%",
    "pest or weed control at 560 ppm": 100
  },
  {
    "SMI": "CCc1ccc(-c2cc(N)c(Cl)c(C(=O)OC)n2)cc1",
    "UNITS TEXT": "%",
    "pest or weed control at 560 ppm": 100
  },
  {
    "SMI": "COC(=O)c1nc(-c2ccc(Cl)cc2)cc(NC(C)=O)c1Cl",
    "UNITS TEXT": "%",
    "pest or weed control at 560 ppm": 100
  },
  {
    "SMI": "COC(=O)c1nc(-c2ccc(Cl)cc2)c(F)c(N)c1F",
    "UNITS TEXT": "%",
    "pest or weed control at 560 ppm": 100
  },
  {
    "SMI": "COC(=O)c1nc(-c2ccc3c(c2)OCO3)c(F)c(N)c1Cl",
    "UNITS TEXT": "%",
    "pest or weed control at 560 ppm": 100
  },
  {
    "SMI": "COC(=O)c1nc(-c2ccc(Cl)cc2)cc(N)c1Cl",
    "UNITS TEXT": "%",
    "pest or weed control at 560 ppm": 100
  },
  {
    "SMI": "COC(=O)c1nc(-c2ccc(F)cc2)cc(N)c1Cl",
    "UNITS TEXT": "%",
    "pest or weed control at 560 ppm": 100
  },
  {
    "SMI": "COC(=O)c1nc(-c2cccc(Cl)c2)cc(N)c1Cl",
    "UNITS TEXT": "%",
    "pest or weed control at 560 ppm": 100
  },
  {
    "SMI": "COC(=O)c1nc(-c2ccc(Cl)cc2)c(Cl)c(N)c1Cl",
    "UNITS TEXT": "%",
    "pest or weed control at 560 ppm": 40
  },
  {
    "SMI": "COC(=O)c1nc(-c2ccc3c(c2)OCO3)cc(N)c1Cl",
    "UNITS TEXT": "%",
    "pest or weed control at 560 ppm": 100
  }
]
